- Test system: MS2 coat protein
- assay.procedure: apparent KD of MS2 coat protein; designed switch direction (-1 OFF switch, 1 ON switch): -1; higher = weaker reporter binding
- run.conditions: input ligand: microRNA oligo, concentration not stated
Lab note: compare apparent KD of MS2 coat protein against 20 nM. Equal or greater, write Fulfilled. Smaller, write Not fulfilled.

sequence.entry	class
CUGCUCCGUGUAGGAUAUGCAUACUCCCACUAUGCAGAAGGACAUGAGGAUCACCCAUGUAUGUUAUUAUCACGUGUAGCGUCC [Design 17] (Eterna round: R96, puzzle: Exclusion NG 1)	Not fulfilled
AUGCUCCGUGUAGGAUAUCGCCGUACCACUCGGCGAGAAGGACAUGAGGAUCACCCAUGUAUGUUAUUAUCACGUGUGGCGCGC [Design 50] (Eterna round: R96, puzzle: Exclusion NG 1)	Not fulfilled
CCCAGUUAGUGAGGAUAUCCUACAUGAGGAUCACCCAUGUAAUAAAUGAGGAUUUCGGGUGUCUAGGAGAAGGCACGGAUAGGC [Ostracism 24 - Jieux - Exclusion NG 2] (Eterna round: R96, puzzle: Exclusion NG 2)	Fulfilled
ACAUGAGGAUCACCCAUGUACAGGGUUUAGUUUCAUCGUUUGAAGGAUAUACACUGUUAGUUGUCGUAGAAGGUCACUGAUUGG [JR_ExcNG3_Sub010] (Eterna round: R96, puzzle: Exclusion NG 3)	Fulfilled
UUAAAUCAUGUAGGAUAUGCUUUGCGAAGCGAGGCAGAAGGACAUGAGGAUCACCCAUGUGCUAGCGUCCGAGUACGGAUGCAA [Mat - Exclusion NG 1 - Mod of JL - D62] (Eterna round: R96, puzzle: Exclusion NG 1)	Fulfilled

Q: Item AAAGUGCUGCGAGGAUAUACAUGAGGAUCACCCAUGUGGAUGUCUGAGGCAAAGCCUCAGACAAUGUAGAAGGCGCAGUACUAA [Mat - Exclusion NG 2 - Mod of JL - D56] (Eterna round: R96, puzzle: Exclusion NG 2) with apparent KD of MS2 coat protein of 20 nM or above?
Result: Not fulfilled

Q: Item GAUCCUUUUACGGACGUCUCGAAACAUGAGGAUCACCCAUGUGAGGAUAUCUCCGAAAGGUCGGCAGAGAAGGCACAAUAACAA [MOD2 Eternabot solution 19 score 84.66] (Eterna round: R96, puzzle: Exclusion NG 3) with apparent KD of MS2 coat protein of 20 nM or above?
Result: Not fulfilled

Q: Item ACAUGAGGAUCACCCAUGUUUGGCUGGUUUUCUCCGGCUGUCGAGGAUAUAGUCCGGUAUCCGCGCUAGAAGGUGAGGGUCGGC [Aenatbe mod 3] (Eterna round: R96, puzzle: Exclusion NG 3) with apparent KD of MS2 coat protein of 20 nM or above?
Result: Not fulfilled

Q: Item ACAUGAGGAUCACCCAUGUUUGGCUGGUCGUCUCCGGCUGUCGAGGAUAUAGUACGGUAUCCGCGCUAGAAGGUGAGGGCCGGC [Raxeorer] (Eterna round: R96, puzzle: Exclusion NG 3) with apparent KD of MS2 coat protein of 20 nM or above?
Result: Not fulfilled
